The reported numbers originate from paper PMC8037182.

test system: Caco-2 cell line; experiment: Cytotoxicity MTS assay, Caco-2 cell line; format: cell-based; settings: 50μM; third assay; Caco-2 cell line
METRIC NAME: OD490 Well 1

Worked set:
1. CCOC(=O)c1c(C2NC(=O)NC(C)=C2C(=O)Nc2ccccc2C)[nH]c(C(=O)OC)c1C (stereo not shown) [D2]	0.6025
2. CCOC(=O)c1[nH]c(C2NC(=O)NC(C)=C2C(=O)Nc2ccccc2OC)c(C(=O)OC)c1C (stereo not shown) [D3]	0.6532
3. COC(=O)c1[nH]c(C2NC(=S)NC(C)=C2C(=O)c2ccccc2)c(C(=O)OC)c1C (stereo not shown) [D14]	0.4985
4. CCOC(=O)c1c(C2NC(=O)NC(C)=C2C(=O)Nc2ccccc2)[nH]c(C(=O)OC)c1C (stereo not shown) [D10]	0.4698
5. CCOC(=O)c1c(C2NC(=O)NC(C)=C2C(=O)Nc2ccccc2OC)[nH]c(C(=O)OC)c1C (stereo not shown) [D1]	0.6048
6. CCOC(=O)c1[nH]c(C2NC(=O)NC(C)=C2C(=O)Nc2ccccc2C)c(C(=O)OC)c1C (stereo not shown) [D4]	0.4412
7. CCOC(=O)c1[nH]c(C2NC(=S)NC(C)=C2C(=O)OC)c(C(=O)OCC)c1C (stereo not shown) [D12]	0.5933
8. CCOc1ccccc1C1NC(=S)NC(C)=C1C(=O)Nc1ccc(Cl)cc1 (stereo not shown) [C9]	0.4963
9. CCOC(=O)C1=C(C)NC(=S)NC1c1cccc(O)c1 (stereo not shown) [Monastrol, monastrol, reference compound]	0.5287

// next entry
input: Please indicate OD490 Well 1 recorded for CCOC(=O)c1[nH]c(C2NC(=O)NC(C)=C2C(=O)Nc2ccc(Cl)cc2)c(C(=O)OCC)c1C (stereo not shown) [D7]
output: 0.5112
